# TEST_TARGET: BACE1 (Homo sapiens, UniProt P56817)
# Sequence (P56817 46-501, species assumed): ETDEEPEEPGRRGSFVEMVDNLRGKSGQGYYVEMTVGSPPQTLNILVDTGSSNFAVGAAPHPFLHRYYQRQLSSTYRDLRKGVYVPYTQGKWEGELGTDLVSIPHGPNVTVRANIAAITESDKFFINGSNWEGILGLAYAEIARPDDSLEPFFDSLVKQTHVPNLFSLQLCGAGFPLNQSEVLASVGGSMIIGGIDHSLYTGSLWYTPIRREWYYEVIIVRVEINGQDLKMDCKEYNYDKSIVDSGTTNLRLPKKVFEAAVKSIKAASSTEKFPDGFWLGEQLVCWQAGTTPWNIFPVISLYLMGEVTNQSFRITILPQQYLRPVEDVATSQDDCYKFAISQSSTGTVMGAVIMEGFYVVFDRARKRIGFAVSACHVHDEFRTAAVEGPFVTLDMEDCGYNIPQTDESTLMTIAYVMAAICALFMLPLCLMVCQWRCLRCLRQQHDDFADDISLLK
# TEST_DESCRIPTION: In Vitro Enzymatic BACE FRET (Fluorescence Resonance Energy Transfer) Assay
# Type: biochemical
# CONDITION_DETAILS: read-out: BACE1 FRET assay
pIC50: −log10 of the molar value.
VALUE_KIND: pIC50

Reference set (3 entries):
{"columns": ["MOLECULE", "pIC50"],
 "data": [
  ["COC(C)(C)C#Cc1cnc2c(c1)[C@@]1(COC(N)=N1)c1cc(-c3ccc(F)nc3)ccc1O2", "6.00 to 7.00"],
  ["Cc1ccc(-c2ccc3c(c2)[C@]2(COC(N)=N2)c2cc(OCC(C)(C)C)ccc2O3)cn1", "6.00 to 7.00"],
  ["Cn1cc(-c2cc(F)c3c(c2)[C@]2(COC(N)=N2)c2cc(-c4cccnc4)ccc2O3)cn1", "> 7.00"]
]}

Answer with reported pIC50 of "NC1=N[C@]2(CO1)c1cc(C3=CCOCC3)ccc1Oc1ccc(-c3cccnc3)cc12"
> 7.00

Answer with reported pIC50 of "NC1=N[C@]2(CO1)c1cc(C3=CCOC3)ccc1Oc1ccc(-c3cncnc3)cc12"
> 7.00

Answer with reported pIC50 of "CC1(C)C=C(c2cc3c(cc2F)Oc2ccc(-c4cncnc4)cc2[C@@]32COC(N)=N2)CCO1"
> 7.00

----------
# TEST_TARGET: UniProt:P56817
# TEST_DESCRIPTION: In Vitro Enzymatic BACE FRET (Fluorescence Resonance Energy Transfer) Assay
# Type: biochemical
# CONDITION_DETAILS: Table IV, class symbols; read-out: BACE1 FRET assay
# Method: In Vitro Enzymatic BACE FRET (Fluorescence Resonance Energy Transfer) Assay (Enzyme Assay Data in the Example Tables I, II, III & IV) The assay buffer used in this screen is 0.05 M acetate, pH 4.2, 10% DMSO final, 100 uM genapol (which is a nonionic detergent, below its Critical Micelle Concentration). […] The FRET assay is terminated with by addition of Tris buffer, which raises the pH to neutrality, and the fluorescence is determined. […]
Property: IC50; scope: individual compounds

Reference set (5 entries):
{"columns": ["CHEMICAL_STRING", "TEST_VALUE"],
 "data": [
  ["CC(C)(C)C#Cc1ccc2c(c1)[C@@]1(COC(N)=N1)c1cc(C#CC(C)(C)C)cnc1O2", "< 0.1 µM"],
  ["NC1=N[C@@]2(CO1)c1cc(-c3ccc(F)cc3)ccc1Oc1ncc(C3=CCOCC3)cc12", "< 0.1 µM"],
  ["Cn1cc(-c2ccc3c(c2)[C@]2(COC(N)=N2)c2cc(-c4ccc(F)nc4)ccc2O3)cn1", "< 0.1 µM"],
  ["NC1=N[C@@]2(CO1)c1cc(-c3ccccc3)ccc1Oc1ncc(N3CCOCC3)cc12", "< 0.1 µM"],
  ["CC1(COc2ccc3c(c2)[C@@]2(COC(N)=N2)c2cc(-c4cncnc4)cc(F)c2O3)COC1", "< 0.1 µM"]
]}

Answer with reported IC50 of "CC(C)(C)C#Cc1cnc2c(c1)[C@@]1(COC(N)=N1)c1cc(-c3cncnc3)cc(F)c1O2"
0.1 to 1 µM

Answer with reported IC50 of "NC1=N[C@@]2(CO1)c1cc(-c3cccnc3)ccc1Oc1ccc(-c3cncs3)cc12"
< 0.1 µM

Answer with reported IC50 of "CC(=O)Cc1ccc2c(c1)[C@]1(COC(N)=N1)c1cc(-c3cccnc3)ccc1O2"
0.1 to 1 µM

Answer with reported IC50 of "CCOC(=O)/C=C/c1ccc2c(c1)[C@]1(COC(N)=N1)c1cc(-c3cncnc3)ccc1O2"
0.1 to 1 µM

Answer with reported IC50 of "CC(C)(C)COc1ccc2c(c1)[C@]1(COC(N)=N1)c1cc(C(=O)NC3CCCC3)ccc1O2"
0.1 to 1 µM

Answer with reported IC50 of "CC(C)(C)COc1ccc2c(c1)[C@]1(COC(N)=N1)c1cc(-c3cccs3)ccc1O2"
< 0.1 µM

Answer with reported IC50 of "CC(C)(C)COc1ccc2c(c1)[C@]1(COC(N)=N1)c1ccccc1O2"
1 to 5 µM
